Here, each record is paired with measured Inhibition data.
# System: Staphylococcus aureus
# measurement_setup: Concentration 32 ug.mL-1;; ASSAY_TEST Inhibition of Bacterial Growth; detection method Absorption (OD600); MEDIA CAMHB; plate type 384well; NBS; CORNING #3640; time 18 hr
# Description: Antibacterial activity against Staphylococcus aureus MRSA ATCC 43300 (CO-ADD:GP_020); MIC in CAMBH media, using NBS plates, by OD(600)
Measured potencies and affinities stand elsewhere.

mol	measured_parameter	reported_measurement
CC(C)CCNC(=O)CSc1nnc2c3cc(-c4ccccc4)nn3ccn12	Inhibition	4.29%
O=C(Cn1nc2ccc(C(=O)NCc3ccccc3)cn2c1=O)Nc1ccc(Br)cc1	Inhibition	3.47%

// next entry
`Cc1[nH]c2ccccc2c1C(=O)CSc1nnc2c(=O)n(-c3ccc(F)c(F)c3)ccn12` yielded Inhibition of 13.1%
